- assay_remarks: solubility
- Assay type: physicochemical
- details: water; solvent-free material
measured_parameter: solubility

Quick check: solubility of O=C([O-])C[C@H](NC(=O)CP(=O)(O)O)C(=O)[O-].[Na+].[Na+] [disodium PALA] ?
> 950 mg/mL
